- target-of-assay: Bromodomain-containing protein 4 (Homo sapiens, UniProt O60885)
- assay-explanation: Inhibition of BRD4 (unknown origin)
pIC50: −log10 of the molar value.
Measured pIC50 by item
readout-kind: pIC50

compound=[2H]C([2H])([2H])c1nnn(C)c1-c1cnc2c3ccc(C(C)(C)O)c(F)c3n([C@H](c3ncccc3F)C3CCOCC3)c2c1 numeric_result=9.22
compound="Cc1nnn(C)c1-c1cnc2c3ccc(C(C)(C)O)cc3n(C(c3cnn[nH]3)C3CCOCC3)c2c1 (configuration not stated)" numeric_result=7.57
compound=[2H]C([2H])([2H])c1nnn(C)c1-c1cnc2c3ccc(C(C)(C)O)cc3n([C@H](c3ccc(Cl)cn3)C3CCOCC3)c2c1 numeric_result=9.00
compound=[2H]C([2H])([2H])c1nnn(C)c1-c1cnc2c3ccc(C(C)(C)O)cc3n([C@H](c3cc(C)on3)C3CCOCC3)c2c1 numeric_result=8.92
compound=Cc1cc([C@H](C2CCOCC2)n2c3cc(C(C)(C)O)ccc3c3ncc(-c4c(C)nnn4C)cc32)no1 numeric_result=8.80
compound=[2H]C([2H])([2H])c1nnn(C)c1-c1cnc2c3ccc(C(C)(C)O)c(F)c3n([C@H](c3cc(C)on3)C3CCOCC3)c2c1 numeric_result=8.70
compound=[2H]C([2H])([2H])c1nnn(C)c1-c1cnc2c3cc(F)c(C(C)(C)O)cc3n([C@H](c3ccccc3)C3CCOCC3)c2c1 numeric_result=9.05

----------
Measured IC50 by item
- target-of-assay: Bromodomain-containing protein 4 (Homo sapiens, UniProt O60885)
- assay-explanation: Inhibition of BRD4 (unknown origin)
readout-kind: IC50 (nM)

record_smiles=[2H]C([2H])([2H])c1nnn(C)c1-c1cnc2c3ccc(C(C)(C)O)cc3n([C@H](c3ncccc3F)C3CCOCC3)c2c1 numeric_result=0.9
record_smiles=[2H]C([2H])([2H])c1nnn(C)c1-c1cnc2c3cc(F)c(C(C)(C)O)cc3n([C@H](c3cc(C)on3)C3CCOCC3)c2c1 numeric_result=1.4
record_smiles=Cc1cc([C@H](C2CCOCC2)n2c3cc(C(C)(C)O)ccc3c3ncc(-c4c(C)nnn4C)cc32)n(C)n1 numeric_result=2.3

----------
- assay-explanation: Metabolic stability in monkey liver microsomes assessed as half life measured upto 120 mins
- Assay type: ADME, Macaca mulatta, Microsome
- test-context: rhesus monkey
Measured half-life by item
readout-kind: half-life

record_smiles=[2H]C([2H])([2H])c1nnn(C)c1-c1cnc2c3ccc(C(C)(C)O)cc3n([C@H](c3cc(C)on3)C3CCOCC3)c2c1 readout_kind=half-life result="37 min"
record_smiles=[2H]C([2H])([2H])c1nnn(C)c1-c1cnc2c3ccc(C(C)(C)O)cc3n([C@H](c3ccc(Cl)cn3)C3CCOCC3)c2c1 readout_kind=half-life result="37 min"
record_smiles=[2H]C([2H])([2H])c1nnn(C)c1-c1cnc2c3cc(F)c(C(C)(C)O)cc3n([C@H](c3ccccc3)C3CCOCC3)c2c1 readout_kind=half-life result="19 min"
record_smiles=[2H]C([2H])([2H])c1nnn(C)c1-c1cnc2c3ccc(C(C)(C)O)cc3n([C@H](c3ncccc3F)C3CCOCC3)c2c1 readout_kind=half-life result="22 min"
record_smiles=[2H]C([2H])([2H])c1nnn(C)c1-c1cnc2c3ccc(C(C)(C)O)c(F)c3n([C@H](c3cc(C)on3)C3CCOCC3)c2c1 readout_kind=half-life result="23 min"
record_smiles=Cc1cc([C@H](C2CCOCC2)n2c3cc(C(C)(C)O)ccc3c3ncc(-c4c(C)nnn4C)cc32)no1 readout_kind=half-life result="16 min"
record_smiles=[2H]C([2H])([2H])c1nnn(C)c1-c1cnc2c3cc(F)c(C(C)(C)O)cc3n([C@H](c3cc(C)on3)C3CCOCC3)c2c1 readout_kind=half-life result="21 min"
record_smiles=[2H]C([2H])([2H])c1nnn(C)c1-c1cnc2c3c(F)cc(C(C)(C)O)cc3n([C@H](c3cc(C)on3)C3CCOCC3)c2c1 readout_kind=half-life result="34 min"
record_smiles=[2H]C([2H])([2H])c1nnn(C)c1-c1cnc2c3ccc(C(C)(C)O)c(F)c3n([C@H](c3ncccc3F)C3CCOCC3)c2c1 readout_kind=half-life result="22 min"
record_smiles=Cc1cc([C@H](C2CCOCC2)n2c3cc(C(C)(C)O)ccc3c3ncc(-c4c(C)nnn4C)cc32)n(C)n1 readout_kind=half-life result="36 min"
